Known pest or weed control at 100 ppm of a selection of compounds
tested on: Mycosphaerella graminicola; Anamorph: Septoria tritici; experiment: Leaf blotch of wheat (SEPTTR) disease control on wheat seedlings; type: in vivo; settings: Zymoseptoria tritici, 72 h; Wheat Leaf Blotch; 3 Day Curative; high volume application, 100 ppm; read-out: Disease Control SEPTTR 3 DC 100 ppm
parameter-measured: pest or weed control at 100 ppm

| given-smiles | value |
| --- | --- |
| CCCO[C@H]1CCC[C@H](NC(=O)c2nccc(OC)c2O)C(=O)O[C@@H](C)[C@@H]1Oc1cccc(Cl)c1 | 80 to 100% |
| CCCO[C@H]1[C@H](C)OC(=O)[C@@H](NC(=O)c2nccc(OC)c2OC(C)=O)CCC[C@@H]1Oc1cc(C)cc(C)c1 | 80 to 100% |
| CCCO[C@H]1[C@H](C)OC(=O)[C@@H](NC(=O)c2nccc(OC)c2OCOC(C)=O)CCC[C@@H]1Oc1ccc(F)cc1 | 80 to 100% |
| CCCO[C@H]1CCC[C@H](NC(=O)c2nccc(OC)c2OC(C)=O)C(=O)O[C@@H](C)[C@@H]1Oc1ccc(-c2ccccc2)cc1 | 80 to 100% |
| COc1ccnc(C(=O)N[C@H]2CCC[C@H](Oc3ccccc3)[C@@H](OC(=O)C3CC3)[C@H](C)OC2=O)c1O | 0 to 80% |
| CCCO[C@H]1[C@H](C)OC(=O)[C@@H](NC(=O)c2nccc(OC)c2OC(C)=O)CCC[C@@H]1Oc1cccc(F)c1 | 80 to 100% |
| COc1ccnc(C(=O)N[C@H]2CCC[C@H](Oc3ccccc3)[C@@H](OC(=O)C3CC3)[C@H](C)OC2=O)c1OCOC(C)=O | 80 to 100% |
| CCCO[C@H]1CCC[C@H](NC(=O)c2nccc(OC)c2OC(C)=O)C(=O)O[C@@H](C)[C@@H]1Oc1ccc(OC)cc1 | 80 to 100% |
| CCCO[C@H]1CCC[C@H](NC(=O)c2nccc(OC)c2O)C(=O)O[C@@H](C)[C@@H]1Oc1ccc(OC)cc1 | 0 to 80% |
| CCCO[C@H]1CCC[C@H](NC(=O)c2nccc(OC)c2OC(C)=O)C(=O)O[C@@H](C)[C@@H]1Oc1ccc(Br)cc1 | 80 to 100% |
| COc1ccnc(C(=O)N[C@H]2CCC[C@H](Oc3ccccc3)[C@@H](OC(=O)C3CCCC3)[C@H](C)OC2=O)c1OC(C)=O | 80 to 100% |
| COCCC(=O)Oc1c(OC)ccnc1C(=O)N[C@H]1CCC[C@H](Oc2ccccc2)[C@@H](OC(=O)C2CC2)[C@H](C)OC1=O | 80 to 100% |
| CCCO[C@H]1CCC[C@H](NC(=O)c2nccc(OC)c2O)C(=O)O[C@@H](C)[C@@H]1Oc1ccc(-c2ccccc2)cc1 | 0 to 80% |
| COc1ccnc(C(=O)N[C@H]2CCC[C@H](Oc3ccccc3)[C@@H](OC)[C@H](C)OC2=O)c1O | 0 to 80% |

---

system: Puccinia triticina; Synonym: Puccinia recondite f. sp. tritici; experiment: Wheat brown rust (PUCCRT) disease control on wheat seedlings; assay type: in vivo; conditions: Puccinia triticina, 24 h; High volume application, 100 ppm; 1 Day Protectant; read-out: PUCCRT 1DP disease control
Measured pest or weed control at 100 ppm of individual entries

| compound | pest or weed control at 100 ppm |
| --- | --- |
| COc1ccnc(C(=O)N[C@H]2CCC[C@H](OC3CCCC3)[C@@H](OCCCc3ccccc3)[C@H](C)OC2=O)c1O [F163] | 80 to 100% |
| COc1ccnc(C(=O)N[C@H]2CCC[C@H](OCc3ccccc3)[C@@H](Oc3ccccc3)[C@H](C)OC2=O)c1O [F23] | 80 to 100% |
| COc1ccnc(C(=O)N[C@H]2CCC[C@H](OCC(C)C)[C@@H](OCCC(C)OC)[C@H](C)OC2=O)c1OCOC(C)=O (stereo partly drawn) [F72] | 80 to 100% |
| COc1ccc(O[C@H]2[C@H](C)OC(=O)[C@@H](NC(=O)c3nccc(OC)c3O)CCC[C@@H]2Oc2ccc(OC)cc2)cc1 [F64] | 0 to 80% |
| COc1ccc(O[C@H]2[C@H](C)OC(=O)[C@@H](NC(=O)c3nccc(OC)c3OCOC(=O)C(C)C)CCC[C@@H]2Oc2ccc(OC)cc2)cc1 [F67] | 80 to 100% |
| COc1ccnc(C(=O)N[C@H]2CCC[C@H](Oc3ccc(C)cc3)[C@@H](Oc3ccc(C)cc3)[C@H](C)OC2=O)c1O [F113] | 0 to 80% |
| COc1ccnc(C(=O)N[C@H]2CCC[C@H](OCC(C)C)[C@@H](OCCCc3ccccc3)[C@H](C)OC2=O)c1OC(C)=O [F214] | 80 to 100% |
| COc1ccc(O[C@H]2CCC[C@H](NC(=O)c3nccc(OC)c3OCOC(C)=O)C(=O)O[C@@H](C)[C@@H]2Oc2ccc(F)cc2)cc1 [F60] | 80 to 100% |
| COc1ccnc(C(=O)N[C@H]2CCC[C@H](OC3CCCC3)[C@@H](OCC(C)C)[C@H](C)OC2=O)c1O [F119] | 80 to 100% |
| COCCC(=O)Oc1c(OC)ccnc1C(=O)N[C@H]1CCC[C@H](OC2CCCC2)[C@@H](OCC(C)C)[C@H](C)OC1=O [F146] | 80 to 100% |
| COc1ccc(O[C@H]2CCC[C@H](NC(=O)c3nccc(OC)c3O)C(=O)O[C@@H](C)[C@@H]2Oc2ccc(F)cc2)cc1 [F54] | 80 to 100% |
| COc1ccnc(C(=O)N[C@H]2CCC[C@H](OCC(C)C)[C@@H](OCCCc3ccccc3)[C@H](C)OC2=O)c1OCOC(C)=O [F43] | 80 to 100% |
| COc1ccnc(C(=O)N[C@H]2CCC[C@H](OCC(C)C)[C@@H](OCCCC(F)(F)F)[C@H](C)OC2=O)c1OCOC(C)=O [F44] | 80 to 100% |
| CCCO[C@H]1[C@H](C)OC(=O)[C@@H](NC(=O)c2nccc(OC)c2OC(C)=O)CCC[C@@H]1OCC(C)C [F47] | 80 to 100% |
| COc1ccnc(C(=O)N[C@H]2CCC[C@H](OC3CCCC3)[C@@H](OC3CCCC3)[C@H](C)OC2=O)c1OCOC(C)=O [F217] | 80 to 100% |
| COc1ccnc(C(=O)N[C@H]2CCC[C@H](OC3CCCC3)[C@@H](Oc3ccccc3)[C@H](C)OC2=O)c1OCOC(=O)C(C)C [F79] | 80 to 100% |
| COc1ccnc(C(=O)N[C@H]2CCC[C@H](Oc3ccc(F)cc3)[C@@H](Oc3ccc(F)cc3)[C@H](C)OC2=O)c1O [F50] | 80 to 100% |
| COc1ccnc(C(=O)N[C@H]2CCC[C@H](OCCCC(F)(F)F)[C@@H](OC3CCCC3)[C@H](C)OC2=O)c1OC(C)=O [F173] | 80 to 100% |
| CCCO[C@H]1[C@H](C)OC(=O)[C@@H](NC(=O)c2nccc(OC)c2OCOC(C)=O)CCC[C@@H]1OCCC [F116] | 80 to 100% |
| CCCCCO[C@H]1[C@H](C)OC(=O)[C@@H](NC(=O)c2nccc(OC)c2O)CCC[C@@H]1OC1CCCC1 [F164] | 80 to 100% |
| COc1ccnc(C(=O)N[C@H]2CCC[C@H](OCC(C)C)[C@@H](OCCCC(F)(F)F)[C@H](C)OC2=O)c1O [F41] | 80 to 100% |
| COc1ccnc(C(=O)N[C@H]2CCC[C@H](Oc3ccccc3)[C@@H](OCc3ccccc3)[C@H](C)OC2=O)c1O [F24] | 80 to 100% |
| CCCCCO[C@H]1[C@H](C)OC(=O)[C@@H](NC(=O)c2nccc(OC)c2OCOC(=O)C(C)C)CCC[C@@H]1Oc1ccccc1 [F98] | 80 to 100% |
| COc1ccnc(C(=O)N[C@H]2CCC[C@H](OCCCC(F)(F)F)[C@@H](OCCCC(F)(F)F)[C@H](C)OC2=O)c1OCOC(C)=O [F87] | 80 to 100% |
| COc1ccnc(C(=O)N[C@H]2CCC[C@H](OCC(C)C)[C@@H](OC(=O)C3CCCC3)[C@H](C)OC2=O)c1OC(C)=O [F151] | 80 to 100% |
| CCc1ccnc(C(=O)N[C@H]2CCC[C@H](OCC(C)C)[C@@H](OCCC(C)OC)[C@H](C)OC2=O)c1O (stereo partly drawn) [F71] | 0 to 80% |
| COc1ccnc(C(=O)N[C@H]2CCC[C@H](Oc3ccc(F)cc3)[C@@H](OCC(C)C)[C@H](C)OC2=O)c1O [F56] | 80 to 100% |

The reported numbers originate from patent US9681664B2.
